target: GABA: PBR (Rattus norvegicus, UniProt P16257)
Sequence (P16257 whole entry): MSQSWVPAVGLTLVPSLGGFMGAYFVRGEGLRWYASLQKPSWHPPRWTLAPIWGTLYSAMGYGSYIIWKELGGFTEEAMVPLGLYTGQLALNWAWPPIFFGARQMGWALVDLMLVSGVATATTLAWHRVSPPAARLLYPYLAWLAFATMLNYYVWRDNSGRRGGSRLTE
quantityMeasured: Ki (nM)
Write down the numeric answer in nM and omit the unit.

Checklist item: Ki tested on GABA: PBR (Rattus norvegicus, UniProt P16257), entry CCCCCn1cc(C(=O)c2cccc3ccccc23)c2ccccc21 [JWH-018, 1-pentyl-3-(1-naphthoyl)indole] , value?
673

---

hERG Channels Emax values for the compounds below.
target: hERG (Homo sapiens, UniProt Q12809)
Sequence (Q12809 whole entry): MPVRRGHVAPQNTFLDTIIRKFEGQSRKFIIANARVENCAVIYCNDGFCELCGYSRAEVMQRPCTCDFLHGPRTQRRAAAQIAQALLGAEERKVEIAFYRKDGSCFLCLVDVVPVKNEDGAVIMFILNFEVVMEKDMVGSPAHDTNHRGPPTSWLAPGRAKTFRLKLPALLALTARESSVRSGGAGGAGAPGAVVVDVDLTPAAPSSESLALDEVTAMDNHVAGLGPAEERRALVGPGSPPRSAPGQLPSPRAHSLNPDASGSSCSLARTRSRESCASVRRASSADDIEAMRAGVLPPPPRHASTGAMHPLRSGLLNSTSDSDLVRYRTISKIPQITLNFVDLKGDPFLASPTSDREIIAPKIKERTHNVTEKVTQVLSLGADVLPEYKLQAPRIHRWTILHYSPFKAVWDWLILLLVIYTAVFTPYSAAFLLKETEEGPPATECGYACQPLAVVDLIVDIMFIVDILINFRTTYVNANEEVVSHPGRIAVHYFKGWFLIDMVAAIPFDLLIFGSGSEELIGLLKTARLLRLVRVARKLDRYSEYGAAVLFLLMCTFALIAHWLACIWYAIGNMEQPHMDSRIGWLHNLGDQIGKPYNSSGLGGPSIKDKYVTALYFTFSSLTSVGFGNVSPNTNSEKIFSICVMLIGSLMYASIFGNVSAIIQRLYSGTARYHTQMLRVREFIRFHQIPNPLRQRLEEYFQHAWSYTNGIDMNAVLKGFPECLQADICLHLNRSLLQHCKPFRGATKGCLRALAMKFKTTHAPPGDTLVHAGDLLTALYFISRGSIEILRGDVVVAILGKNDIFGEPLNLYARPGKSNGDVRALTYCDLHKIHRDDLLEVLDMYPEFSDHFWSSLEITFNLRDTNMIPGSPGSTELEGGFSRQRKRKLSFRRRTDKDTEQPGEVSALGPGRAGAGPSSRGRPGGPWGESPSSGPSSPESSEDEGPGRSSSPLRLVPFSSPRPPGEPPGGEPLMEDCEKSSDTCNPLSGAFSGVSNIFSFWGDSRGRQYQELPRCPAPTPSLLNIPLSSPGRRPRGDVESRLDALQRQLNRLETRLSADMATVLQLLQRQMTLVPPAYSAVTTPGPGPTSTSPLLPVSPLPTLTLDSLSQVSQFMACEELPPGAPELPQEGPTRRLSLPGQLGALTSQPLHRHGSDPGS
testSummary: hERG channel assay
Type: cell-based
conditionDetails: inhibition of hERG channels; mean of 3 replicates
Write down the numeric answer in % and omit the unit.

> print(dat)
                                   smiles  resultunits  datavalue
1      CCCCCn1cc(C(=O)Cc2ccccc2)c2ccccc21            %         81
2  CCCCn1cc(C(=O)c2cccc3ccccc23)c2ccccc21            %         59

Consider the additional compound presented here.
Checklist item: hERG Channels Emax tested on hERG (Homo sapiens, UniProt Q12809), entry `O=C(c1cccc2ccccc12)c1cn(CCCCCF)c2ccccc12` , value?
70
